system: Plasmodium berghei; assay: Screen against P. berghei liver stage (PbLuc), transformed with Luciferase, at 2uM; format: functional, HepG2; conditions: tested at 2 uM
In all, about 68,000 compounds went through this assay and about 2,700 (4%) showed an effect of 50% or more. The full list was thinned out, with strong results kept by preference.
Documented INHIBITION across a set of compounds
Answer format: numeric, % implied, no suffix.

Example entries and their recorded answers appear below.
COC(=O)CC1CCCCN1CC(=O)Nc1cc(F)ccc1F (stereo not given)	30.82
O=C(c1ccc(S(=O)(=O)NCC(F)F)cc1)N1C[C@H]2CNC[C@H]2C1	57.75
O=C(c1ccc(S(=O)(=O)NCC(F)F)cc1)N1CC[C@H]2CNC[C@H]21	26.74
O=C(c1cc(F)cc(F)c1)N1C[C@H]2CNC[C@H]2C1	51.81
O=C(NCC(F)(F)F)c1ccncc1	8.22
Cc1nc(C2CCCN2C(=O)c2ccc(F)cc2)ncc1C(N)=O (stereo not given)	21.33
Cc1ccc(C(=O)N2C[C@H]3CNC[C@H]3C2)cn1	-53.62
O=C(c1ccc(F)c(F)c1)N1C[C@H]2CNC[C@H]2C1	-9.69
O=C(C1CCCN(C2CCOCC2)C1)N1CCc2ncccc2C1 (stereo not given)	34.71

Field: next compound
Prompt: Look up and report measured INHIBITION (Plasmodium berghei) for the following compound: `O=C(c1ccc(S(=O)(=O)NC2CCC2)cc1)N1CC[C@H]2CNC[C@H]21`
Response: -13.8

---

system: Plasmodium berghei; experiment: Screen against P. berghei liver stage (PbLuc), transformed with Luciferase, at 2uM; format: functional, HepG2; conditions: tested at 2 uM
Out of some 68,000 compounds screened, about 2,700 (4%) showed an effect of 50% or more. Many of the other results were omitted from the sample, so strong results are more common in it than they were.
metric: INHIBITION (%)
Hi! Could you send only the number? It should be in %, unit omitted.

CN(C)S(=O)(=O)N1CCC(c2nnc(C(F)(F)F)o2)CC1	14.97
CCn1cnnc1CCNC(=O)c1ccc(Br)cc1F	-13.8
N[C@@H]1CCC[C@@H](Oc2ccc(F)cc2Oc2cccc(F)c2)[C@@H]1O	35.73

Prompt: Input O=C(C1CCCN(CCc2ccc3c(c2)CCO3)C1)N1CCCC1 (stereo not given) , output reported INHIBITION.
Response: -0.62

Prompt: # return recorded INHIBITION for input `Cc1noc(C)c1CCC(=O)N1CCN(CCn2cccn2)CC1`
Response: 2.18

Prompt: Consider the compound O=C(CN1CCCC1Cn1cccn1)NC1CCOCC1 (stereo not given) and give its recorded INHIBITION.
Response: 4.41

Prompt: Give me measured INHIBITION, please, for this compound: `CCc1ncc(C(=O)N2CCCN(C3CCCCC3)CC2)cn1`
Response: -35.1

Prompt: Please give the documented INHIBITION of `O=C(NCc1ccco1)N1CCN(Cc2ccc3c(c2)CCO3)CC1`
Response: 9.17

Prompt: Determine from records and report INHIBITION for CC(CNC(=O)c1cc(Cl)ccc1I)N1CCCC1 (stereo not given)
Response: 10.11

Prompt: Name the recorded INHIBITION of the compound listed here: `CC(C)CN1CCC2(CC1)CN(C(=O)C(C)C)C2`
Response: 16.12

Prompt: Entry `COc1ccc(NC(=O)Cc2c(C)nn(C)c2C)cc1F` needs its INHIBITION filled in; supply it.
Response: 18.15

Prompt: Report measured INHIBITION; entry is `CCc1nnc(Nc2cccc(C3CCN(CC4CC4)CC3)n2)s1`
Response: 20.71

Prompt: Note down INHIBITION recorded for CC(CNC(=O)c1ccc(Cl)cc1F)N1CCCC1 (stereo not given)
Response: 9.57

Prompt: Report INHIBITION for `COc1ccc(CN(C)C(=O)Cc2c(C)nn(C)c2C)cc1F`
Response: 51.31

Prompt: Identify INHIBITION associated with the compound `CCc1nnc(Nc2cccc(C3CCN(C)CC3)n2)s1`
Response: 7.64

Prompt: Provide INHIBITION value for the following compound: COc1ccc(C(C)NCc2c[nH]nc2C)cc1OC (stereo not given)
Response: 66.4

Prompt: Tell me its INHIBITION given Cc1cc(C)cc(C(C)NCc2nnc(C)s2)c1 (stereo not given) as the entry.
Response: 38.67

---

test system: Plasmodium berghei; test: Screen against P. berghei liver stage (PbLuc), transformed with Luciferase, at 2uM; assay type: functional, HepG2; conditions: tested at 2 uM
In all, about 68,000 compounds went through this assay and about 2,700 (4%) showed an effect of 50% or more. Only a selection was taken, and strong results are over-represented in it overall.
# maps each entry to its INHIBITION
# number only, unit % dropped from output

Cc1nc(CNC(=O)N(C)Cc2cnn(C)c2)cs1	29.19
O=C(C1=CCCC1)N1CC[C@]2(C[C@H](OCc3cccnc3)CO2)C1	-8.81
Cc1cc(C(=O)NCCN2CCCCCC2)nn1C(C)(C)C	-5.98

Prompt: Identify measured INHIBITION corresponding to CN(Cc1ccc(F)cc1)CC1(O)CCN(C(=O)c2ccsc2)C1 (configuration not stated)
Response: 47.4

Prompt: Read off the recorded INHIBITION for `O=C(c1cc(-n2cnnn2)ccc1Cl)N1CCN(c2ccccc2)CC1`
Response: 8.92

Prompt: In one line, give reported INHIBITION of the entry `COc1ccc(S(=O)(=O)NCCn2cnc(C)cc2=O)cc1C` .
Response: 11.94

Prompt: Using known records, supply INHIBITION for `CS(=O)(=O)NCc1n[nH]c2c1CCN(C(=O)c1ccsc1)C2`
Response: 19.56

Prompt: Answer with reported INHIBITION of Cc1nc(CN2CC(Cc3ccccc3)CC2=O)no1 (configuration not stated)
Response: -12.68

Prompt: Read off the recorded INHIBITION for Cc1cnc(NC(=O)NC(CCO)c2cccs2)s1 (configuration not stated)
Response: -11.51

Prompt: // Input: `O=C(c1cc(=O)c(OCc2ccccc2F)co1)N1CCSCC1` . Output its INHIBITION only.
Response: 36.6

Prompt: Tell us which INHIBITION value is on record for O=C(C1CCCc2[nH]ncc21)N1CCCCCC1 (configuration not stated)
Response: -0.54

Prompt: Please list INHIBITION recorded for the compound `CCCc1nc(C)c(C(=O)NS(=O)(=O)c2cccnc2)s1`
Response: -25.2

---

test system: Plasmodium berghei; assay: Screen against P. berghei liver stage (PbLuc), transformed with Luciferase, at 2uM; assay type: functional, HepG2; settings: tested at 2 uM
In all, about 68,000 compounds went through this assay and about 2,700 (4%) showed an effect of 50% or more. The sample as a whole holds a higher share of strong results than the screen did.
// values below are reported INHIBITION
Give the value; after it, write the unit.

The examples below pair each entry with its known result.
CCOC(C)c1nccn1Cc1noc(CC)n1 (stereo unspecified)	-12.93%
CC(CCNC(=O)NCCc1ccncc1)c1ccccc1 (stereo unspecified)	54.29%
CCCN(C)c1ccc(C(=O)Nc2c(C)nn(C(C)C)c2C)cc1	-17.64%

Prompt: Specify measured INHIBITION for CC(CCNC(=O)NCCNc1cnccn1)c1ccccc1 (stereo unspecified) .
Response: -24.05%

---

system: Plasmodium berghei; experiment: Screen against P. berghei liver stage (PbLuc), transformed with Luciferase, at 2uM; type: functional, HepG2; conditions: tested at 2 uM
Screen size: about 68,000 compounds; about 2,700 (4%) showed an effect of 50% or more. Only a selection was taken, and strong results are over-represented in it overall.
metric: INHIBITION (%)
Value expressed in %; do not type the unit.

Cc1ccc(CN(Cc2ccccn2)C(=O)C2CCCCCN2C)s1 (stereo not drawn)	-42.41

Prompt: Return INHIBITION (reported value) for this molecule: CN1C(=O)CCCC12CCCN(Cc1nccs1)C2 (stereo not drawn)
Response: 20.2

Prompt: Return reported INHIBITION. Input molecule: `COc1ccccc1N1CCN(C(=O)c2ccnc(N(C)C)c2)CC1`
Response: 56.78

Prompt: Retrieve INHIBITION measured for CCn1ccnc1CNCC1CCCN1c1cccnn1 (stereo not drawn) and print it.
Response: 39.92

Prompt: Note down INHIBITION recorded for `COCCOc1ncccc1C(=O)Nc1ccc(-n2cncn2)c(F)c1`
Response: 69.41

---

Documented INHIBITION across a set of molecules
tested on: Plasmodium berghei; experiment: Screen against P. berghei liver stage (PbLuc), transformed with Luciferase, at 2uM; type: functional, HepG2; details: tested at 2 uM
Screen size: about 68,000 compounds; about 2,700 (4%) showed an effect of 50% or more. The full list was thinned out, with strong results kept by preference.
Reply with just the number (in %).

Prompt: Return INHIBITION (reported value) for this molecule: `O=C(c1ccncc1)N1C[C@H]2CC[C@@H](C1)N(C(=O)C1CCCC1)C2`
Response: 63.1

Prompt: For the molecule `O=C(c1ccncc1)N1C[C@H]2CC[C@@H](C1)N(C(=O)N1CCOCC1)C2` , give its reported INHIBITION.
Response: -58.5

Prompt: Answer with the recorded INHIBITION for the molecule listed here: Cc1cnc(CN2CCCC(c3cc(C)[nH]n3)C2)cn1 (stereo unspecified)
Response: 43

Prompt: Tell us which INHIBITION value is on record for CC(C)c1nc(C2CCCN2CC(=O)N2CCNC2=O)no1 (stereo unspecified)
Response: 57.33

Prompt: Read the entry CC(C)(C)c1cc(CN2CCOCC(O)C2)n[nH]1 (stereo unspecified) and write its reported INHIBITION.
Response: -67.78

Prompt: Return INHIBITION (reported value) for this molecule: `CCOCC(=O)N1C[C@@H]2CC[C@H]1CN(C(=O)c1ccncc1)C2`
Response: -3.87
